Test: Terminal half life in Nu/Nu mouse at 1 mg/kg, iv administered as single dose
Assay type: ADME, organism-based
Details: in vivo, read-out: beta t1/2 (converted)
resultType: half-life
Please format your answer as a value with the unit trailing.

// lookup half-life for C=CC(=O)N[C@@H]1CN(c2nc(Nc3cn(C)nc3OC)c3ncn(C)c3n2)C[C@H]1F [MAVELERTINIB]
33.6 min

###

Target: Epidermal growth factor receptor (Homo sapiens, UniProt P00533, EX19DEL)
Sequence (P00533 whole entry, looked up, stated change not applied): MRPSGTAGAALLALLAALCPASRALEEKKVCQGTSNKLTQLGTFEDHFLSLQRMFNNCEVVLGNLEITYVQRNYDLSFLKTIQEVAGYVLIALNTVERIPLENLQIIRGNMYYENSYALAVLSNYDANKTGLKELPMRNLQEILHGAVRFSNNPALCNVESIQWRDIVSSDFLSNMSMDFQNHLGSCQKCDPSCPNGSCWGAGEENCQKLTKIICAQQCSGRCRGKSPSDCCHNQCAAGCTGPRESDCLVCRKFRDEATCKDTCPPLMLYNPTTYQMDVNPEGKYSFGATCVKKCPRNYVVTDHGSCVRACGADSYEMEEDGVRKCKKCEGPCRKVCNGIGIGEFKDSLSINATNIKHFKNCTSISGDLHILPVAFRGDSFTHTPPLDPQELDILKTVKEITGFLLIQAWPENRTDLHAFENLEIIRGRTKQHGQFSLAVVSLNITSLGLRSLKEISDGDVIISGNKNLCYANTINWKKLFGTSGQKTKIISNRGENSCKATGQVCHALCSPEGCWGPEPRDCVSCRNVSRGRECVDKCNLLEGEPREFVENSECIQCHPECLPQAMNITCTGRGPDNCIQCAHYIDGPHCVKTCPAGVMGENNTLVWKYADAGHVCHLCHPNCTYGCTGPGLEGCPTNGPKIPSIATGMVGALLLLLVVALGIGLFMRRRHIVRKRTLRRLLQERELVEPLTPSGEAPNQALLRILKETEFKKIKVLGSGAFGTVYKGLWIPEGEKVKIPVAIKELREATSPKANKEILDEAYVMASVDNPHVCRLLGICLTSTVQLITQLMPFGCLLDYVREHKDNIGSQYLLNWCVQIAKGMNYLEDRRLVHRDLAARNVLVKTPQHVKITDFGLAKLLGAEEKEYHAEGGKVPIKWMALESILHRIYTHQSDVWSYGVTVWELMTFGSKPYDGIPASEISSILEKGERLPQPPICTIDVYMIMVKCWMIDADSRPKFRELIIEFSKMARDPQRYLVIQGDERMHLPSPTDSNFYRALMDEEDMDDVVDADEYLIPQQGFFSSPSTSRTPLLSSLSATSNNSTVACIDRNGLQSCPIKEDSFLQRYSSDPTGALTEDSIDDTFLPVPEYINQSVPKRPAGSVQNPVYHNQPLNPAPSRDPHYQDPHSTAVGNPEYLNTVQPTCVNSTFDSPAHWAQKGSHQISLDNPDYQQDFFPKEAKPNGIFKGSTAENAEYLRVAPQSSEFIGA
resultType: IC50 (nM)
I only need the number, in nM, no unit after it.

Recorded IC50 of C=CC(=O)N[C@@H]1CN(c2nc(Nc3cn(C)nc3C)c3ncn(C(C)C)c3n2)C[C@H]1F , please.
16

###

Assay: Apparent intrinsic clearance in human microsomes
Assay type: ADME, Microsome
Settings: read-out: CL(app)
resultType: CLint scaled

CLint scaled lookup needed for C=CC(=O)N[C@@H]1CN(c2nc(Nc3cn(C)nc3OC)c3ncn(C)c3n2)C[C@H]1F , thanks.
< 6 mL/min/kg

###

Test: in vitro
Details: dog, MDCK
resultType: Papp (×10⁻⁶ cm/s)
Only the number, expressed in ×10⁻⁶ cm/s, is required.

Look up Papp: CC(C)C(CO)Nc1nc(Nc2ccc(N3CCNCC3)cc2)c2ncn(C(C)C)c2n1 (racemic)
1.9

Try this compound next: C=CC(=O)N[C@@H]1CN(c2nc(Nc3cn(C)nc3OC)c3ncn(C(C)C)c3n2)C[C@H]1F
18

Item: C=CC(=O)N[C@@H]1CN(c2nc(Nc3cn(C)nc3OC)c3nc[nH]c3n2)C[C@H]1F
2

Moving on to C=CC(=O)N[C@@H]1CN(c2nc(Nc3cn(C)nc3OC)c3ncn(C)c3n2)C[C@H]1F
9

###

Test: Clearance in Wistar Han rat plasma at 1 mg/kg, iv administered as single dose
Format: ADME, organism-based
resultType: clearance
# number then unit; no other words

// query clearance value for entry C=CC(=O)N[C@@H]1CN(c2nc(Nc3cn(C)nc3OC)c3ncn(C)c3n2)C[C@H]1F [MAVELERTINIB]
49 mL/min/kg

###

Assay: physchem
Details: octanol/water
Use t when the recorded logD is no lower than 2; use f when it is lower.

Confirm if logD reported for the compound C=CC(=O)N1C[C@@H]2CN(c3nc(Nc4cnn(C)c4)c4ncn(C(C)C)c4n3)C[C@@H]2C1 is 2 or above.
t

Item: C=CC(=O)N[C@@H]1CCN(c2nc(Nc3cnn(C)c3)c3ncn(C(C)C)c3n2)C1
t

Param item: C=CC(=O)N[C@@H]1CN(c2nc(Nc3cn(C)nc3OC)c3nc[nH]c3n2)C[C@H]1F
f

Another compound: C=CC(=O)N1CC[C@@H](Nc2nc(Nc3ccc(N4CCN(C)CC4)cc3)c3ncn(C(C)C)c3n2)C1
t

Then C=CC(=O)N[C@H]1CCN(c2nc(Nc3ccc(N4CCN(C)CC4)cc3)c3ncn(C(C)C)c3n2)C1 ?
t

Item: C=CC(=O)N[C@H]1CCN(c2nc(Nc3cnn(C)c3)c3ncn(C(C)C)c3n2)C1
t

###

Assay: physchem
Conditions: octanol/water
resultType: logD

Need logD of C=CC(=O)N[C@@H]1CN(c2nc(Nc3cn(C)nc3CC)c3ncn(C(C)C)c3n2)C[C@H]1F , thanks.
3.5

How about C=CC(=O)N1CC[C@H](Nc2nc(Nc3ccc(N4CCN(C)CC4)cc3)c3ncn(C(C)C)c3n2)C1 ?
1.8

Next molecule up: C=CC(=O)N[C@@H]1CN(c2nc(Nc3cn(C)nc3C)c3ncn(C(C)C)c3n2)C[C@H]1F
2.6

Lookup C=CC(=O)N[C@@H]1CN(c2nc(Nc3cn(C)nc3OC)c3ncn(C(C)C)c3n2)C[C@H]1F
2.6

###

Molecular target: Voltage-gated inwardly rectifying potassium channel KCNH2 (Homo sapiens, UniProt Q12809)
Sequence (Q12809 whole entry): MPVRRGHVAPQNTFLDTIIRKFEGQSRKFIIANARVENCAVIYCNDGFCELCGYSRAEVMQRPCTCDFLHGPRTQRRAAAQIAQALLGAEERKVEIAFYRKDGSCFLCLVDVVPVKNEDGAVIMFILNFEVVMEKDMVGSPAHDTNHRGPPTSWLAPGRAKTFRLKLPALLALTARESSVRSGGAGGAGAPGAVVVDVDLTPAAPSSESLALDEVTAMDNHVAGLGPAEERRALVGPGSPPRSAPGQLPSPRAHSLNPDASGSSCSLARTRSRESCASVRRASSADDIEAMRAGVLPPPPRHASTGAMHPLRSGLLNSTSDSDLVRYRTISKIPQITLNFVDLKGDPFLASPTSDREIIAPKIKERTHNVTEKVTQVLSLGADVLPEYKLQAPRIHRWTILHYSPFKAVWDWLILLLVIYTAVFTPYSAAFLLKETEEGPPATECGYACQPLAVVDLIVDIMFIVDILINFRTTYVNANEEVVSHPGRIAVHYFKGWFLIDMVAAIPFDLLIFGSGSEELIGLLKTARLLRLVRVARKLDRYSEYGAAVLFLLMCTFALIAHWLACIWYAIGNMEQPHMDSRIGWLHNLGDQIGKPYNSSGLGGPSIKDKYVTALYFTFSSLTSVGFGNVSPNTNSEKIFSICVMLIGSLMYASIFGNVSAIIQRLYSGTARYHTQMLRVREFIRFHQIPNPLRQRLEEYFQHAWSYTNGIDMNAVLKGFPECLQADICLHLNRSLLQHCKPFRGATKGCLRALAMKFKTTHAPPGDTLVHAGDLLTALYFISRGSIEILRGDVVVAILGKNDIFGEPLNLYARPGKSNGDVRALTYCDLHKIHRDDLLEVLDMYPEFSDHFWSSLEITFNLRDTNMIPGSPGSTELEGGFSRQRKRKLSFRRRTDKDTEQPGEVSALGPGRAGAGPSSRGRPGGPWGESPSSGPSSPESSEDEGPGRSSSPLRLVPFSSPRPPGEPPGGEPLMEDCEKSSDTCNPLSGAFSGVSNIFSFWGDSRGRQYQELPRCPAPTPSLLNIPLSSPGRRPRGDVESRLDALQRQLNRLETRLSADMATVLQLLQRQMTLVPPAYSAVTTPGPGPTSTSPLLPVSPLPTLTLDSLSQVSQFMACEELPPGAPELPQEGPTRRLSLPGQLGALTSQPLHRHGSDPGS
resultType: IC50

Look at this molecule and give its reported IC50. C=CC(=O)N[C@@H]1CN(c2nc(Nc3cn(C)nc3OC)c3ncn(C)c3n2)C[C@H]1F
> 100 µM

###

Test: Apparent intrinsic clearance in human hepatocytes
Assay type: ADME, cell-based, Hepatocyte
Details: read-out: CLH(app)
resultType: CLint scaled (mL/min/kg)
Dear colleague, please return just the value in mL/min/kg, with no unit written.

Need CLint scaled, item C=CC(=O)N[C@@H]1CN(c2nc(Nc3cn(C)nc3OC)c3ncn(C)c3n2)C[C@H]1F
3

###

Assay: Apparent intrinsic clearance in dog microsomes
Format: ADME, Canis lupus familiaris, Microsome
Conditions: read-out: CL(app)
resultType: CLint scaled (mL/min/kg)
Hi! Could you send only the number? It should be in mL/min/kg, unit omitted.

Using the record for C=CC(=O)N[C@@H]1CN(c2nc(Nc3cn(C)nc3OC)c3ncn(C)c3n2)C[C@H]1F [MAVELERTINIB] , report its CLint scaled.
3

###

Experiment: Apparent intrinsic hepatic clearance in mouse hepatocytes
Assay type: ADME, cell-based, Hepatocyte
Conditions: read-out: CLH(app)
resultType: CLint scaled (mL/min/kg)
Give just the numeric value; mL/min/kg need not be written.

Bench note: what CLint scaled did C=CC(=O)N[C@@H]1CN(c2nc(Nc3cn(C)nc3OC)c3ncn(C)c3n2)C[C@H]1F show?
196

###

Test: Volume of distribution at steady state in Beagle dog at 1 mg/kg, iv administered as single dose
Assay type: ADME, organism-based, Canis lupus familiaris
Settings: in vivo, read-out: Vdss
resultType: Vd (L/kg)
Return type: number; implicit unit L/kg.

Request the reported Vd associated with C=CC(=O)N[C@@H]1CN(c2nc(Nc3cn(C)nc3OC)c3ncn(C)c3n2)C[C@H]1F
0.94

###

Assay: Apparent intrinsic clearance in rat microsomes
Assay type: ADME, Microsome
Details: read-out: CL(app)
resultType: CLint scaled
Show the value, then the unit it is measured in.

// query CLint scaled value for entry C=CC(=O)N[C@@H]1CN(c2nc(Nc3cn(C)nc3OC)c3ncn(C)c3n2)C[C@H]1F [MAVELERTINIB]
141 mL/min/kg

###

Experiment: Terminal half life in Wistar Han rat at 1 mg/kg, iv administered as single dose
Type: ADME, organism-based
Conditions: in vivo, read-out: beta t1/2 (converted)
resultType: half-life
Returns: string containing the numeric result and its unit.

Quick one: half-life for C=CC(=O)N[C@@H]1CN(c2nc(Nc3cn(C)nc3OC)c3ncn(C)c3n2)C[C@H]1F [MAVELERTINIB] ?
16.8 min

###

Assay: Clearance in Beagle dog plasma at 1 mg/kg, iv administered as single dose
Type: ADME, organism-based, Canis lupus familiaris
resultType: clearance (L/h/kg)
Supply the numeric figure in L/h/kg, leaving out any unit text.

Value lookup for clearance; key = C=CC(=O)N[C@@H]1CN(c2nc(Nc3cn(C)nc3OC)c3ncn(C)c3n2)C[C@H]1F
0.72

###

Assay: Fraction unbound in dog plasma at 2 uM by LC-MS/MS based equilibrium dialysis method
Assay type: ADME, cell-free, Canis lupus familiaris
resultType: fraction unbound at 2 µM
Please give only the number in your answer, with no unit.

What does the data say about its fraction unbound at 2 µM? Entry: C=CC(=O)N[C@@H]1CN(c2nc(Nc3cn(C)nc3OC)c3ncn(C)c3n2)C[C@H]1F [MAVELERTINIB]
0.75

###

Assay: Half life in human blood at 1 uM by LC-MS/MS analysis
Type: ADME, tissue-based
resultType: half-life at 1 µM (h)
Write the value in h as a bare number.

Dear colleague, I am looking for the recorded half-life at 1 µM of the following molecule: C=CC(=O)N[C@@H]1CN(c2nc(Nc3cn(C)nc3OC)c3ncn(C)c3n2)C[C@H]1F [MAVELERTINIB]
5.8

###

Assay: Oral bioavailability in Nu/Nu mouse at 1 mg/kg administered as single dose
Type: ADME, organism-based
Conditions: in vivo
resultType: bioavailability (%)
Answer format: numeric, % implied, no suffix.

Recorded bioavailability of C=CC(=O)N[C@@H]1CN(c2nc(Nc3cn(C)nc3OC)c3ncn(C)c3n2)C[C@H]1F [MAVELERTINIB] , please.
60

###

Experiment: in vitro
Conditions: human, liver microsomes
resultType: microsomal CLint at […], 1 µM (µL/min/mg)
Please give a number only; it is taken to be in µL/min/mg.

Using the record for C=CC(=O)N[C@@H]1CN(c2nc(Nc3cn(C)nc3OC)c3ncn(C(C)C)c3n2)C[C@H]1F , report its microsomal CLint at […], 1 µM.
32

C=CC(=O)N[C@@H]1CN(c2nc(Nc3cn(C)nc3C)c3ncn(C(C)C)c3n2)C[C@H]1F ?
30

Same again, this time with C=CC(=O)N[C@@H]1CN(c2nc(Nc3cn(C)nc3OC)c3nc[nH]c3n2)C[C@H]1F
8

Would you kindly repeat that for C=CC(=O)N[C@@H]1CN(c2nc(Nc3cn(C)nc3OC)c3ncn(C)c3n2)C[C@H]1F [MAVELERTINIB] ?
8

Repeat with C=CC(=O)N[C@@H]1CN(c2nc(Nc3cn(C)nc3CC)c3ncn(C(C)C)c3n2)C[C@H]1F
81

Attribution: ChEMBL document CHEMBL4177539
